# T/C per entry
Tested on: P388 leukemia ip, CD2F1 mice, survival T/C
Assay: NCI In Vivo Anticancer Drug Screen. Data for tumor model P388 Leukemia (intraperitoneal) in CD2F1 (CDF1) mice
Conditions: endpoint: median survival time; dose: 120.0 mg/kg/injection; schedule: Q01DX005 (ip); vehicle: saline with Tween-80; higher = longer survival
Toxic doses and inconclusive results are not listed.
recorded.metric: T/C

- C=CCCCN1C(=O)CCCC1=O: 101 % of control
- O=c1cc2n(c(=O)n1-c1ccccc1)CCCC2: 100 % of control
- O=C1OCC/C1=C/O/C=C1\CCOC1=O: 119 % of control
- CCOC(=O)C1C2CCCCC21OC (stereo unspecified): 107 % of control
- c1ccc(CC2CCc3ccccc3/C2=N/OCC2CO2)cc1 (stereo unspecified): 98 % of control
- Cc1ccc2c(c1)C(=Nc1ccc(Cl)cc1)C(=O)N2: 87 % of control
- N/C(CC(=O)Nc1cc(C(F)(F)F)ccc1Cl)=N\O: 100 % of control
- CCN(CC)C(C)(C)C(=O)/C=C/c1ccc(C)cc1: 103 % of control
- Cc1ccc(O)c(C2CC(C#N)CCN2C)c1 (stereo unspecified): 100 % of control
- CCOc1cccc2c1NC(C)=C(C(=O)c1ccccc1)S2: 95 % of control
- CCCCC#CC(=O)OCC: 106 % of control
- N#Cc1cc2cccn2c2c1cnn2-c1ccccc1: 98 % of control
- Cc1cc(=O)c2ccc(Cl)c(C)c2[nH]1: 93 % of control
- CC(=O)OC1CC2CC(O)(C(=O)CO)CC2C2CCC3=CC(=O)CC3C(C)(O)C12 (stereo unspecified): 93 % of control
- CCOc1c(Cc2ccccc2)c(=O)nc2c(-c3ccccc3)cncn12: 92 % of control
- COc1ccc(C(=O)C2=C(C)Nc3ccc(Br)cc3S2)cc1: 110 % of control
- Cc1ccc2nc3ccccc3c(SCCCCCCSc3c4ccccc4nc4ccc(C)cc34)c2c1: 90 % of control
- Cc1n[nH]c(=O)c(N)c1-c1cc(-c2ccccc2)n[nH]1: 94 % of control
- CCOC(=O)C1CSC(c2ccccc2)=N1 (stereo unspecified): 111 % of control
- CCC(C)C1SCC(=O)N1c1nncs1 (stereo unspecified): 100 % of control
- CCOC(=O)/C=C/N=[N+]=[N-]: 105 % of control
- O=CC1CCC(c2ccc3ccccc3c2)O1 (stereo unspecified): 114 % of control
- COc1cc(C(=O)NNC(=O)C2CCC(=O)N2Cc2ccccc2)cc(OC)c1OC (stereo unspecified): 90 % of control
- CCOC1CC2C(=O)C(CC)=C(OC)CC2(CC)CO1 (stereo unspecified): 99 % of control
- O=C(CCCl)Nc1ccc(CCC(=O)c2ccccc2NC(=O)CCCl)cc1: 90 % of control
- O=C1C(O)=C(c2ccccc2)C12CSC1(CS2)C(=O)C(O)=C1c1ccccc1 (stereo unspecified): 94 % of control

###

Each entry below carries its reported T/C.
System: P388 leukemia ip, CD2F1 mice, survival T/C
Experiment: NCI In Vivo Anticancer Drug Screen. Data for tumor model P388 Leukemia (intraperitoneal) in CD2F1 (CDF1) mice
Conditions: endpoint: median survival time; dose: 30.0 mg/kg/injection; schedule: Q01DX005 (ip); vehicle: saline with Tween-80; higher = longer survival
Inconclusive results and toxic doses are left out.
recorded.metric: T/C

* COc1ccc(C(c2c(O)c3ccccc3oc2=O)c2c(O)c3ccccc3oc2=O)cc1 | 98 % of control
* c1ccc(CC2CCc3ccccc3/C2=N/OCC2CO2)cc1 (stereo unspecified) | 101 % of control
* O=C(NC(=O)c1c(F)cccc1F)Nc1cccc(Oc2ncc(Cl)cn2)c1 | 96 % of control
* N#CNc1c2ccccc2nc2ccccc12 | 97 % of control
* C[N+]1(CCC(/C=C/c2ccc([N+](=O)[O-])cc2)=N\O)CCOCC1 | 100 % of control
* C=C(CBr)C(=O)OCC | 103 % of control

###

System: P388 leukemia ip, CD2F1 mice, survival T/C
Test: NCI In Vivo Anticancer Drug Screen. Data for tumor model P388 Leukemia (intraperitoneal) in CD2F1 (CDF1) mice
Details: endpoint: median survival time; dose: 100.0 mg/kg/injection; schedule: Q01DX005 (ip); vehicle: Klucel (hydroxypropylcellulose) (HPC)
Method: The antitumor activity of compounds was measured in mice bearing transplantable tumors. Survival or tumor size were measured and the results are expressed as the measurement made in the treated group (T) divided by the measurement made in the vehicle treated control group (C). The tumor model used in this assay is P388 Leukemia (intraperitoneal) in CD2F1 (CDF1) mice
Toxic doses and inconclusive results are not listed. Rule for the calls: active = survival T/C of 150% or more; inactive = T/C below 125% in these data. Peptide text beside a SMILES is read from it. * marks the point of attachment. Boc = CC(C)(C)OC(=O)*
Outcomes: 1.0 for active, 0.0 for inactive

• COC(=O)C(CP(C)(C)=O)C(N=C(C)C(F)(F)F)(c1ccccc1)c1ccccc1 (configuration not stated) = 0.0
• Brc1c(C(Br)Br)ccc2ccccc12 = 0.0
• [NH-]C(CO)C(O)c1ccccc1.[NH-]C(CO)C(O)c1ccccc1.[NH-]C(CO)C(O)c1ccccc1.[Pr+3] (configuration not stated) = 0.0
• COc1cc2c(cc1OCc1ccccc1)C(Cc1cc(Br)sc1Br)=NCC2 = 0.0
• CN1C2CCC1C(O)C(c1ccc(Cl)cc1)C2 (configuration not stated) = 0.0
• CC1(C)N(/N=C/c2ccccc2)C(c2ccccc2)C(c2ccccc2)N1/N=C/c1ccccc1 (configuration not stated) = 0.0
• NNC(=O)C12CC3CC(CC(C3)C1)C2 = 0.0
• CN(C)C(=O)Sc1nnc(C(C)(C)C)o1 = 0.0
• COC(=O)C(Cc1ccccc1)NC(=O)C(Cc1ccccc1)NC(=O)OC(C)(C)C (stereo not drawn) (Boc-Phe-Phe-OMe; configuration not given here) = 0.0
• O=c1c2cccnc2oc2c(Cl)cc(-c3nn[nH]n3)cc12 = 0.0
• Cn1c(N)c(C(=O)/C=C/c2ccccc2)c(=O)[nH]c1=O = 0.0
• CCCNC(=O)CCC(NS(=O)(=O)c1ccc(C)cc1)C(=O)O (configuration not stated) = 0.0
• O=C(N/N=C\c1ccccc1O)c1cccc2ccccc12 = 0.0
• COc1ccc(/C=C/C(=O)c2ccccc(=O)c2O)cc1OC = 0.0
• COC(=O)C1C(=O)C2OC1C1OC(C)(C)OC21 (configuration not stated) = 0.0
• O=C1c2ccccc2C(=O)N1c1ccccc1Br = 0.0
• c1cc2cc(-c3ccc4oc(C5=NCCN5)cc4c3)[nH]c2cc1C1=NCCN1 = 1.0
• CC1(C)[C@H](C(=O)O)N2C(=O)[C@@H](NC(=O)C(c3ccccc3)c3ccccc3)[C@H]2S1=O (some centres not stated) = 0.0
• CC1CC(=O)Nc2cc(C(F)(F)F)ccc2N1 (configuration not stated) = 0.0
• CC1C(n2[nH]c(=O)n(C)c2=O)c2ccccc2-n2c(=O)n(C)c(=O)n21 (configuration not stated) = 0.0
• COC(=O)C1=C(N)SS/C1=C/[N+](=O)[O-] = 0.0
• C/C(=N\NC(=S)N1CCCC1)c1ccc[nH]1 = 0.0

###

Tested on: P388 leukemia ip, CD2F1 mice, survival T/C
Assay: NCI In Vivo Anticancer Drug Screen. Data for tumor model P388 Leukemia (intraperitoneal) in CD2F1 (CDF1) mice
Details: endpoint: median survival time; dose: 400.0 mg/kg/injection; schedule: Q01DX001 (ip); vehicle: Klucel (hydroxypropylcellulose) (HPC); higher = longer survival
Toxic doses and inconclusive results are not listed.
# key: entry, value: T/C
recorded.metric: T/C

- CC(C)=CCc1cc2c(cc1O)OC[C@H]1c3cc4c(cc3O[C@@H]21)OCO4: 91 % of control
- NC(=O)CCC1CC(=O)c2ccccc2C1 (stereo not drawn): 92 % of control
- NC(=S)N/N=C/c1c(Cl)nc2n1CCS2: 92 % of control
- Cn1c(=O)c2nc(-c3cccnc3)cnc2n(C)c1=O: 105 % of control
- c1ccc(C2=NCCN=C2c2ccccc2)cc1: 93 % of control
- Cc1ccc(S(=O)(=O)N/N=C/c2c(Cl)n(C(=O)c3ccccc3C)c3ccccc23)cc1: 89 % of control
- Cc1ccc(S(=O)(=O)N/N=C/c2c(C)nc3n2CCS3)cc1: 102 % of control
- COc1ccc(Cn2nnc(C(N)=O)c2NC=O)cc1: 100 % of control

###

Tested on: P388 leukemia ip, CD2F1 mice, survival T/C
Test: NCI In Vivo Anticancer Drug Screen. Data for tumor model P388 Leukemia (intraperitoneal) in CD2F1 (CDF1) mice
Conditions: endpoint: median survival time; dose: 60.0 mg/kg/injection; schedule: Q01DX005 (ip); vehicle: saline with Tween-80; higher = longer survival
Inconclusive results and toxic doses are left out.
recorded.metric: T/C

- c1ccc(CC2CCc3ccccc3/C2=N/OCC2CO2)cc1 (stereo unspecified): 97 % of control
- O=C1C(Cl)=C(Nc2cc(Cl)ccc2Cl)C(=O)c2ccccc21: 98 % of control
- O=[N+]([O-])c1ccc(/C=C/C(CCN2CCCCC2)=N\O)o1: 104 % of control
- COC(=O)NC1CCC(=O)N1Cc1ccccc1 (stereo unspecified): 96 % of control
- O=C(c1ccccc1)c1cc(Cl)ccc1NCC(O)COc1cccc2ccccc12 (stereo unspecified): 100 % of control
- O=CC1CCC(c2ccc3ccccc3c2)O1 (stereo unspecified): 106 % of control
